System: KM20L2 colon
Assay Name: NCI tumour cell line growth inhibition, 48 h
Measured Endpoint: TGI

In: Given the compound CC(=O)OC(CCC1(C)OC1COc1ccc(CCNC(=O)c2ccccc2)cc1)C(C)(C)OC(C)=O (stereo not given) , write its reported TGI.
Out: > 100 µM

In: Given the compound O=C1C2C3C=CC(C2C(=O)N1COP(=O)(O)O)C1C2C(=O)N(COP(=O)(O)O)C(=O)C2C31 (stereo not given) , write its reported TGI.
Out: > 100 µM

In: Given the compound `CCOC(=O)C(=Cc1ccc(Oc2ccccc2)cc1)C(=O)OCC` , write its reported TGI.
Out: 16.8 µM

In: Given the compound CC(C)C(C)C(C)(C)P(C)(C)=O (stereo not given) , write its reported TGI.
Out: > 100 µM

In: Given the compound CCc1cccc(C(C)C)c1NC(=O)C(=O)C(CC(=O)Nc1ccc(Cl)c(Cl)c1)C(=O)OC (stereo not given) , write its reported TGI.
Out: > 100 µM

In: Given the compound `S=c1cc(S)sc2c1c(=S)sc1nc3ccccn3c(=S)c12` , write its reported TGI.
Out: > 100 µM

In: Given the compound `O=C(O)/C(=C/C=C/c1ccccc1)c1csc(-c2nc(/C(=C\C=C\c3ccccc3)C(=O)O)cs2)n1` , write its reported TGI.
Out: > 100 µM

In: Given the compound `Cc1c2cnccc2c(C)c2c1c1ccccc1n2CCCCCCNCc1ccccc1` , write its reported TGI.
Out: 3.33 µM

In: Given the compound `COC(=O)CCC(=O)CC(=O)C(=O)Nc1c(Cl)cc([N+](=O)[O-])cc1Cl` , write its reported TGI.
Out: > 100 µM

In: Given the compound `O=C(Nc1nc2ncn(CCNCc3ccccc3)c2c(=O)[nH]1)c1ccccc1` , write its reported TGI.
Out: > 100 µM

In: Given the compound CCC1CN2CCc3c([nH]c4ccccc34)C2C[C@@H]1CC(=O)N(C)C (stereo not given in full) , write its reported TGI.
Out: > 100 µM

In: Given the compound `CN1CCC(CN2c3ccccc3Sc3ccccc32)CC1` , write its reported TGI.
Out: 25.8 µM

In: Given the compound `COCCCNC(=O)CC(=O)NCCCOC` , write its reported TGI.
Out: > 100 µM

In: Given the compound CCOC(=O)C1=C(C)N(c2ccc(C)cc2)C2=C(C(=O)N(c3ccccc3)C2c2ccccc2)C1c1ccccc1 (stereo not given) , write its reported TGI.
Out: > 25 µM

In: Given the compound `CCCCCCCCCCCCCP(=O)(O)OCC` , write its reported TGI.
Out: > 100 µM

In: Given the compound COc1cc2c3c(c1OC)-c1c(ccc4c1OCO4)CC3(C#N)N(C(=O)c1ccccc1)CC2 (stereo not given) , write its reported TGI.
Out: > 100 µM

In: Given the compound O=C(CC1(O)C(=O)Nc2c(Cl)cc(Cl)cc21)c1cccc2ccccc12 (stereo not given) , write its reported TGI.
Out: 34.1 µM

In: Given the compound `COC(=O)c1c(N)n[nH]c1N` , write its reported TGI.
Out: > 100 µM

In: Given the compound `O=C(O)c1cn2c3c(cc(N4CCN(CCO)CC4)cc3c1=O)SCC2` , write its reported TGI.
Out: > 100 µM

In: Given the compound COc1cc(OC)c(C2CC=Cc3c(OC)cc(OC)c(OC)c32)cc1OC (stereo not given) , write its reported TGI.
Out: > 100 µM

###

Tested on: CAKI-1 renal
Assay Name: NCI tumour cell line growth inhibition, 48 h
Measured Endpoint: TGI

In: Given the compound COc1cc(C2C(C(=O)O)=C(COC(C)=O)Oc3cc4c(cc32)OCO4)cc(OC)c1OC (centres undefined) , write its reported TGI.
Out: > 100 µM

In: Given the compound CC(=O)O[C@@H]1C2=C(C)C=C(O2)[C@H]2O[C@]2(C)C[C@H]2C=C(C(=O)O2)[C@H](OC(C)=O)CC1[C@@]1(C)CO1 (some centres undefined) , write its reported TGI.
Out: 62.8 µM

In: Given the compound `COC(=O)CCCC(=O)O` , write its reported TGI.
Out: > 100 µM

In: Given the compound `Cc1ccc(O)c(-c2cc(-c3cccc(Cl)c3)c(C#N)c(N)n2)c1` , write its reported TGI.
Out: > 100 µM

###

System: A549 NSCLC
Assay Name: NCI tumour cell line growth inhibition, 48 h
Measured Endpoint: TGI

In: Given the molecule CCCCS(=O)(=O)CCC(N)C(=O)O (stereo not given) , write its reported TGI.
Out: > 100 µM

In: Given the molecule `O=C(NP(=O)(N1CC1)N1CC1)c1cc(I)ccc1I` , write its reported TGI.
Out: > 100 µM

In: Given the molecule COC(=O)C1=C(O)C(C(=O)OC)[C@]2(O)[C@H](C(=O)OC)[C@H]1C[C@@H](c1c(Cl)cccc1Cl)[C@H]2C(=O)OC (stereo not given in full) , write its reported TGI.
Out: 6.21 µM

In: Given the molecule `Cc1cc(N(CCNc2ccnc3cc(Cl)ccc23)Cc2ccco2)nc(Cl)n1` , write its reported TGI.
Out: 3.42 µM

In: Given the molecule `CCOC(=O)c1c(N2CCCC2)[nH]c(=O)c(C(c2ccco2)c2c(O)c(C(=O)OCC)c(N3CCCC3)[nH]c2=O)c1O` , write its reported TGI.
Out: > 100 µM

In: Given the molecule O=c1[nH]c(=O)n(C2CC(O)C(CO)O2)cc1C1=NC1 (stereo not given) , write its reported TGI.
Out: > 100 µM

In: Given the molecule `COc1ccc(Cn2cc3c(c2-c2ccc(OC)cc2)CCc2cnoc2-3)cc1` , write its reported TGI.
Out: > 100 µM

In: Given the molecule `Cc1ccc(O)c(-c2cc(-c3cccc(Cl)c3)c(C#N)c(N)n2)c1` , write its reported TGI.
Out: 43.4 µM

In: Given the molecule `COc1cc2c(cc1Nc1nc(Nc3ccsc3C(N)=O)c3cc[nH]c3n1)N(C(=O)CN(C)C)CCC2(C)C` , write its reported TGI.
Out: 4.69 µM

In: Given the molecule CCOC(=O)C(O)(NC(=O)c1ccccc1F)C(F)(F)F (stereo not given) , write its reported TGI.
Out: > 100 µM

###

Could you please report measured GI50 for the items listed next?
Tested on: SK-MEL-28 melanoma
Assay Name: NCI tumour cell line growth inhibition, 48 h

In: Given the molecule `COc1ccc(Cn2cc3c(c2-c2ccc(OC)cc2)CCc2cnoc2-3)cc1` , write its reported GI50.
Out: 0.804 µM

In: Given the molecule `Nc1nc(-c2ccccc2)nc(N)c1N=O` , write its reported GI50.
Out: 11.9 µM

In: Given the molecule CN1c2ccccc2C(C)(C)C12C=Cc1cc(O)ccc1O2 (stereo unspecified) , write its reported GI50.
Out: 3.94 µM

In: Given the molecule `CCNC(=O)c1cc2c(-c3cc(C(C)(C)O)ccc3Oc3c(C)cc(F)cc3C)cn(C)c(=O)c2[nH]1` , write its reported GI50.
Out: 4.37 µM

In: Given the molecule `O=[N+]([O-])c1c(Br)sc(Br)c1[N+](=O)[O-]` , write its reported GI50.
Out: 2.01 µM

In: Given the molecule `CN1CCN(c2ccc3nc(-c4ccc5nc(-c6ccc(OCCC(C)(C)C)cc6)[nH]c5c4)[nH]c3c2)CC1` , write its reported GI50.
Out: 3.03 µM

###

Could you please report measured TGI for the items listed next?
Test system: UACC-257 melanoma
Assay Name: NCI tumour cell line growth inhibition, 48 h

In: Provide TGI, tested on UACC-257 melanoma, for `COCCCNC(=O)CC(=O)NCCCOC` .
Out: > 100 µM

In: Provide TGI, tested on UACC-257 melanoma, for CCCCCCCCCCCCOP(=O)(O)OCC(N)C(=O)O (stereo unspecified) .
Out: > 100 µM

In: Provide TGI, tested on UACC-257 melanoma, for `O=C(/C=C/c1ccc(O)c(O)c1)c1cc(O)cc(O)c1` .
Out: 23 µM

In: Provide TGI, tested on UACC-257 melanoma, for `C=C(Br)N(CC)CC` .
Out: > 100 µM

In: Provide TGI, tested on UACC-257 melanoma, for CC1(CCCO)CCCCCCCCCC(C)(CCCO)C1=O (stereo unspecified) .
Out: > 100 µM

In: Provide TGI, tested on UACC-257 melanoma, for `O=C(NP(=O)(N1CC1)N1CC1)c1cc(I)ccc1I` .
Out: > 100 µM

In: Provide TGI, tested on UACC-257 melanoma, for `CCCCN1C(=O)c2c(-c3sccc3N)sc(-c3sccc3N)c2C1=O` .
Out: > 100 µM

In: Provide TGI, tested on UACC-257 melanoma, for `COc1cc2c(cc1Nc1nc(Nc3ccsc3C(N)=O)c3cc[nH]c3n1)N(C(=O)CN(C)C)CCC2(C)C` .
Out: 4.34 µM

In: Provide TGI, tested on UACC-257 melanoma, for `O=C(O)c1cn2c3c(cc(N4CCN(CCO)CC4)cc3c1=O)SCC2` .
Out: > 100 µM

In: Provide TGI, tested on UACC-257 melanoma, for `O=C(O)/C(=C/C=C/c1ccccc1)c1csc(-c2nc(/C(=C\C=C\c3ccccc3)C(=O)O)cs2)n1` .
Out: > 100 µM

In: Provide TGI, tested on UACC-257 melanoma, for `COc1cc(COC(=O)N(CC(=O)O)c2ccccc2)c([N+](=O)[O-])cc1OC` .
Out: > 100 µM

In: Provide TGI, tested on UACC-257 melanoma, for `Cc1cccc2c(=O)c3c(sc12)c(NCCNCCO)nc1ccccc13` .
Out: 3.79 µM

In: Provide TGI, tested on UACC-257 melanoma, for `COC(=O)CCCC(=O)O` .
Out: > 100 µM

In: Provide TGI, tested on UACC-257 melanoma, for `O=C(Nc1ccccc1)NS(=O)(=O)c1ccc(-n2nc3c(c2-c2ccc(Cl)cc2)Cc2ccccc2-3)cc1` .
Out: > 100 µM

In: Provide TGI, tested on UACC-257 melanoma, for `Cn1c2ccccc2c2c(=O)[nH]c(=O)[nH]c21` .
Out: > 100 µM

In: Provide TGI, tested on UACC-257 melanoma, for `CCCCCCCCCCCCCC[S+](C)C` .
Out: 6.99 µM

All values here come from PubChem BioAssay (NCI).
